Target: T1, TNFR1 (Homo sapiens, UniProt P19438)
T1 chain: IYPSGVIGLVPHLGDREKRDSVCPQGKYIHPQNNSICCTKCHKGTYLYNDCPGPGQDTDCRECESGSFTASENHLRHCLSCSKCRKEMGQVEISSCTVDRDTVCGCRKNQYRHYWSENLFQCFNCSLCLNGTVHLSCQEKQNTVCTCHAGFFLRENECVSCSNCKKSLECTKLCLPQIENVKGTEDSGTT
Assay: yeast display SC50
parameter.measured: apparent Kd (screen) (nM)
Just the number in nM, nothing appended.

[[record]]
binder = "A90L (designed binder) MTLQELLREEALRRAEAEAFRYALELLAEKFPEQKEYLLDLAEEIESQIRSLSGVDVEDVRKFLDKEWAWVKELLAEHPAELAEVEAARLARLAELRAEVEAKVAA"
parameter_measured = "apparent Kd (screen)"
display_unit = "nM"
assay_value = 0.653


Switching to the query record.
query: Give the measured apparent Kd (screen) of E46Y (designed binder) MTLQELLREEALRRAEAEAFRYALELLAEKFPEQKEYLLDLAEEIYSQIRSLSGVDVEDVRKFLDKEWAWVKELLAEHPAELAEVEAARAARLAELRAEVEAKVAA .
result: 0.539
